Target: Fuc(a1-2)Gal6S(b1-4)Glc
Experiment: glycan array binding signal (z-score within array); higher = stronger binding
Details: glycan notation: IUPAC condensed, linker removed
This excerpt belongs to a sample that is enriched for the strongest signals.

>  <binder>
DCIR1 (Mus musculus), Q9QZ15 (protein) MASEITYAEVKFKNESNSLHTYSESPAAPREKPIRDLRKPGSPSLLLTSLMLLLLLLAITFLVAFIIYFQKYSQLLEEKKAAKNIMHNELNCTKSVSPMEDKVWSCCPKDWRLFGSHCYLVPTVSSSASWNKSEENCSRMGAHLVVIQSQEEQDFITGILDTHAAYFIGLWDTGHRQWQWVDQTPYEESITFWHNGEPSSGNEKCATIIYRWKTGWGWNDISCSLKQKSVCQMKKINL

>  <glycan array binding signal (z-score)>
1.87

$$$$
>  <binder>
Mincle (Homo sapiens), Q9ULY5 (protein) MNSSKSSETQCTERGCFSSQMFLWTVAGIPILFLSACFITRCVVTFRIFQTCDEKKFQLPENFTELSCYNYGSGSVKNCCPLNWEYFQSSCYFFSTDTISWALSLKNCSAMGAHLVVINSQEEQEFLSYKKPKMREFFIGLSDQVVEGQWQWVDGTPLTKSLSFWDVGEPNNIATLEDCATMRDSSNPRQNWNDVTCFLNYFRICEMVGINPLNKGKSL

>  <glycan array binding signal (z-score)>
-0.325

$$$$
>  <binder>
HPAIIITrx (Helix pomatia), Q1KM18 (protein) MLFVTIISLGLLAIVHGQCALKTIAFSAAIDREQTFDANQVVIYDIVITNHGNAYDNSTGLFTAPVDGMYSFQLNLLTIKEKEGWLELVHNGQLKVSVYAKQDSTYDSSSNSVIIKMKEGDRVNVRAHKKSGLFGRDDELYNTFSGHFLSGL

>  <glycan array binding signal (z-score)>
-0.211

$$$$
